System: delF508-CFTR (Homo sapiens, UniProt P13569, DEL508-508)
Sequence (P13569 with tags, fused parts or gaps DEL508-508): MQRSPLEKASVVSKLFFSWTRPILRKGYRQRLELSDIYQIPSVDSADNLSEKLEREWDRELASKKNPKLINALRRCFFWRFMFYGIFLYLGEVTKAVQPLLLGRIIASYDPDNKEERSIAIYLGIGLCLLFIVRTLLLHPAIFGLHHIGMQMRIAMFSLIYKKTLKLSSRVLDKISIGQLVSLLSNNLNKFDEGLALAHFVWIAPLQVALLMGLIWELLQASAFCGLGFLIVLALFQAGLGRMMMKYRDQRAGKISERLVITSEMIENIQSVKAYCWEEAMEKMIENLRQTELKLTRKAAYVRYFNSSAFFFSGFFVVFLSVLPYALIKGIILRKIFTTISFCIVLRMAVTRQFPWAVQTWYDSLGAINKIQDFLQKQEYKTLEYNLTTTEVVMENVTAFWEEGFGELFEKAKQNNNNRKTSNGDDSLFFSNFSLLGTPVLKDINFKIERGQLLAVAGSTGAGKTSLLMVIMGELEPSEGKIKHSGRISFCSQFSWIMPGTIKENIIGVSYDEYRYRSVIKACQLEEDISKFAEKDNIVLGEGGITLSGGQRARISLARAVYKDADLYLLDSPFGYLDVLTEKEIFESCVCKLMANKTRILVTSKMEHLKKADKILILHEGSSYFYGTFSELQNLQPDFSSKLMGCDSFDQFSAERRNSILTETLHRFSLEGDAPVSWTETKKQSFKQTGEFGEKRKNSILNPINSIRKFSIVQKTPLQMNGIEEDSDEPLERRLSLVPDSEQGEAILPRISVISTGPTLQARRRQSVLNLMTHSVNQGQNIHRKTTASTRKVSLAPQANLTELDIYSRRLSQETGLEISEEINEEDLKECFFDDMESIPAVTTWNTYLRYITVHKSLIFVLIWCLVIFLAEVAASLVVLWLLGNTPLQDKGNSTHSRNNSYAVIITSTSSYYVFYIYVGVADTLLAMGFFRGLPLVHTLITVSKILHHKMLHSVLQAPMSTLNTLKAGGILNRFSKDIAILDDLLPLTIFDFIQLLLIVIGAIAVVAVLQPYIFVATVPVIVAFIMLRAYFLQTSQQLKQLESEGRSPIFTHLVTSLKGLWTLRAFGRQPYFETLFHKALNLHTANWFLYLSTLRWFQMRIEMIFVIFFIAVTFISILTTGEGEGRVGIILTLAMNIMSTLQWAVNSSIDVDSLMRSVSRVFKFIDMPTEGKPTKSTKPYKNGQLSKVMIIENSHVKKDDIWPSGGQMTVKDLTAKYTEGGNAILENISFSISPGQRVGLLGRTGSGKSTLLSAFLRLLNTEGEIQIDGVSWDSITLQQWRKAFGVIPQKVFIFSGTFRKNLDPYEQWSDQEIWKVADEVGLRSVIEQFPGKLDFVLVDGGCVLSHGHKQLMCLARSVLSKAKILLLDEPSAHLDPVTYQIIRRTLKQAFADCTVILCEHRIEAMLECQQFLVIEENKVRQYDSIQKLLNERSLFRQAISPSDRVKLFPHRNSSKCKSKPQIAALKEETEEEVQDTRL
Procedure Details: Iodide efflux test of delF508 addressing in CF15 cells
Condition Set: read-out: Ec50 (concentration giving 50% of maximal efficiency) for delF508 addressing; CF15 cells, 2 hrs at 37° C., stimulation with 10 μM Forskoline+30 μM Genisteine, n=4
Measurement Label: EC50

Smiles Input	System	Recorded Value
CC[C@H](CO)Nc1nc(NCc2ccccc2)c2ncn(C(C)C)c2n1	delF508-CFTR (Homo sapiens, UniProt P13569, DEL508-508)	34 µM
CC[C@@H](CO)Nc1nc(NCc2ccccc2)c2ncn(C(C)C)c2n1	delF508-CFTR (Homo sapiens, UniProt P13569, DEL508-508)	32 µM

====

System: delF508-CFTR (Homo sapiens, UniProt P13569, DEL508-508)
Procedure Details: Iodide efflux test of delF508 addressing in CF15 cells
Measurement Label: EC50 (µM)

Smiles Input	Unit Label	Recorded Value
CC[C@H](CO)Nc1nc(NCc2ccccc2)c2ncn(C(C)C)c2n1	µM	56
